Test system: Aβ total
Assay: Aβ total cellular assay in H4 neuroglioma cells stably expressing human APP695 (electrochemiluminescence), used for the ratio Aβ total IC50 / Aβ42 IC50
Assay type: cell-based
Details: higher ratio = more specific inhibition of Aβ42
Decision: Ratio Aβ(total)/Aβ42 compared against 70; not below it gives T, below it gives F.

{"columns": ["Molecule", "Label class"],
 "data": [
  ["CCN1C(=O)C2CCCCCN2c2nc(Nc3cnc(-n4cnc(C)c4)c(OC)c3)ncc21 (centres unmarked)", "T"],
  ["CCc1nc(Nc2ccc(-n3cnc(C)c3)c(OC)c2)nc2c1N(C)C(=O)[C@]1(C)C[C@@H](OC)CN21", "T"],
  ["CC(C)Cc1nc(Nc2ccc(-c3cnn(C)c3)cc2)nc2c1N(C)C(=O)C1CCCN21 (centres unmarked)", "F"],
  ["CCN1C(=O)C2CCCCCN2c2nc(Nc3ccc(-c4ccnc(C)c4)cc3)ncc21 (centres unmarked)", "F"],
  ["CCN1C(=O)C2CCCCCN2c2nc(Nc3ccc(-n4cnc(C)c4)cc3OC)ncc21 (centres unmarked)", "F"],
  ["COc1cc(Nc2nc(C(C)C)c3c(n2)N2CCCC2C(=O)N3C)ccc1-n1cnc(C)c1 (centres unmarked)", "F"]
]}

====

Tested on: Aβ total
Experiment: Aβ total cellular assay in H4 neuroglioma cells stably expressing human APP695 (electrochemiluminescence), used for the ratio Aβ total IC50 / Aβ42 IC50
Type: cell-based
Conditions: higher ratio = more specific inhibition of Aβ42
Entries are sorted into classes by Ratio Aβ(total)/Aβ42 as follows: b0 = under 40, b1 = from 40 up to 70, b2 = 70 and over

{"columns": ["Molecule", "Label class"],
 "data": [
  ["CCc1nc(Nc2ccc(-c3ccnc(C)c3)cc2)nc2c1N(C)C(=O)C1CCCN21 (stereo not shown)", "b1"],
  ["CCc1nc(Nc2ccc(-n3cnc(C)c3)c(C#N)c2)nc2c1NC(=O)[C@@H]1C[C@@H](OC)CN21", "b0"],
  ["COc1cc(Nc2ncc3c(n2)N2CCCOC2(C)C(=O)N3C)ccc1-n1cnc(C)c1 (stereo not shown)", "b1"],
  ["CCc1nc(Nc2ccc(-n3cnc(C)c3)c(OC)c2)nc2c1NC(=O)C1CC(OC)CCN21 (racemic)", "b0"],
  ["COc1cc(Nc2ncc3c(n2)N2CCCC2(C)C(=O)N3C)ccc1-n1cnc(C)c1 (stereo not shown)", "b2"],
  ["CCN1C(=O)C2CCCCCN2c2nc(Nc3ccc(-n4cnc(C)c4)cc3)ncc21 (stereo not shown)", "b1"],
  ["CCc1nc(Nc2ccc(-n3cnc(C)c3)c(OC)c2)nc2c1N(C)C(=O)[C@@]1(C)C[C@@H](OC)CN21", "b2"],
  ["CCc1nc(Nc2ccc(-n3cnc(C)c3)c(OC)c2)nc2c1NC(=O)C1COCCN21 (stereo not shown)", "b0"],
  ["CCCN1C(=O)C2CCCCCN2c2nc(Nc3ccc(-c4ccnc(C)c4)cc3)ncc21 (stereo not shown)", "b0"],
  ["CCc1nc(Nc2ccc(-n3cnc(C)c3)c(OC)c2)nc2c1N(C)C(=O)[C@@H]1C[C@@H](OC)CN21", "b1"],
  ["CCc1nc(Nc2ccc(-c3cnc(C)o3)c(OC)c2)nc2c1N(C)C(=O)[C@@H]1C[C@@H](OC)CN21", "b2"],
  ["COc1cc(Nc2ncc3c(n2)N2CCCCCC2C(=O)N3C(C)C)ccc1-n1cnc(C)c1 (stereo not shown)", "b2"]
]}

====

Tested on: Aβ total
Experiment: Aβ total cellular assay in H4 neuroglioma cells stably expressing human APP695 (electrochemiluminescence), used for the ratio Aβ total IC50 / Aβ42 IC50
Assay type: cell-based
Settings: higher ratio = more specific inhibition of Aβ42
Measured parameter: Ratio Aβ(total)/Aβ42

{"columns": ["Molecule", "Result value"],
 "data": [
  ["CCc1nc(Nc2ccc(-n3cnc(C)c3)c(OC)c2)nc2c1N(C)C(=O)C1CC(OC)CCN21 (racemic) [Example 21]", 98],
  ["CCc1nc(Nc2ccc(-n3cnc(C)c3)c(C#N)c2)nc2c1N(C)C(=O)[C@@H]1C[C@@H](OC)CN21 [Example 15]", 36],
  ["CCCN1C(=O)C2CCCCCN2c2nc(Nc3ccc(-n4cnc(C)c4)c(OC)c3)ncc21 (stereo not shown) [Example 4]", 44],
  ["CCc1nc(Nc2ccc(-n3cnc(C)c3)c(OC)c2)nc2c1NC(=O)C1CCCN21 (stereo not shown) [Example 7]", 98]
]}

====

Test system: Aβ total
Assay: Aβ total cellular assay in H4 neuroglioma cells stably expressing human APP695 (electrochemiluminescence), used for the ratio Aβ total IC50 / Aβ42 IC50
Type: cell-based
Settings: higher ratio = more specific inhibition of Aβ42

{"columns": ["Molecule", "Ratio Aβ(total)/Aβ42"],
 "data": [
  ["CCc1nc(Nc2ccc(-c3cnc(C)o3)c(OC)c2)nc2c1NC(=O)[C@@H]1C[C@@H](OC)CN21", 82],
  ["CCc1nc(Nc2ccc(-c3cnc(C)o3)c(OC)c2)nc2c1N(C)C(=O)C1CCCN21 (stereo not shown)", 189],
  ["CCN1C(=O)C2CCCCCN2c2nc(Nc3ccc(-c4cnc(C)s4)c(OC)c3)ncc21 (stereo not shown)", 13],
  ["COc1cc(Nc2nc(SC)c3c(n2)N2CCCCC2C(=O)N3C)ccc1-n1cnc(C)c1 (stereo not shown)", 14]
]}

====

Tested on: Aβ total
Assay: Aβ total cellular assay in H4 neuroglioma cells stably expressing human APP695 (electrochemiluminescence), used for the ratio Aβ total IC50 / Aβ42 IC50
Format: cell-based
Settings: higher ratio = more specific inhibition of Aβ42
Measured Ratio Aβ(total)/Aβ42 by item

{"columns": ["Compound", "System name", "Operator", "Ratio Aβ(total)/Aβ42"],
 "data": [
  ["CCc1nc(Nc2ccc(-n3cnc(C)c3)c(OC)c2)nc2c1NC(=O)[C@@H]1C[C@@H](OC)CN21", "Aβ total", "=", 68],
  ["COc1cc(Nc2ncc3c(n2)N2CCCC2C(=O)N3C)ccc1-n1cnc(C)n1 (stereo not shown)", "Aβ total", ">", 10],
  ["CN1C(=O)C2CCCN2c2nc(Nc3ccc(-c4cnn(C)c4)nc3)ncc21 (stereo not shown)", "Aβ total", ">", 5],
  ["Cc1cn(-c2ccc(Nc3nc(CC(C)C)c4c(n3)N3CCCC3C(=O)N4C)cc2C#N)cn1 (stereo not shown)", "Aβ total", "=", 71]
]}

meta.source: patent EP2958919B1
